// provenance: patent US20250320312A1

target.of.assay: BSA (UniProt P02769)
Sequence (P02769 25-607 limits assumed): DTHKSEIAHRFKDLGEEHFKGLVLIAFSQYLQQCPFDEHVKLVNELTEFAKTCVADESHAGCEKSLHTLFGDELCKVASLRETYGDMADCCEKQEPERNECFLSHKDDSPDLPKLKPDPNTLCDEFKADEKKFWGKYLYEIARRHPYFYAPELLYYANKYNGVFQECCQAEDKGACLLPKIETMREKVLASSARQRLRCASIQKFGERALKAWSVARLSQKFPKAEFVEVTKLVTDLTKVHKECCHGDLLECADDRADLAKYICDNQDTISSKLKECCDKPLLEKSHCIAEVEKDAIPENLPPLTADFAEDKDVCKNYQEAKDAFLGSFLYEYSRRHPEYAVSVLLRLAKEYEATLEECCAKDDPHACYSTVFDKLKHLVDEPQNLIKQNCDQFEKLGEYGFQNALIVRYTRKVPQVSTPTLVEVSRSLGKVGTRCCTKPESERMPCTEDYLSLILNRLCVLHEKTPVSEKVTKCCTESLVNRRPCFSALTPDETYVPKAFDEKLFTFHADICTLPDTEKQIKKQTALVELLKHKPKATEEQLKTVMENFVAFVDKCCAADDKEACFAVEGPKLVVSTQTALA
assay.info: scFv ELISA
measurement.kind: OD450 (OD450)

binder	measurement.kind	observed.measurement
PcOxP_DB03_E11 (scFv, V domains shown, scFv in periplasmic extract) VH: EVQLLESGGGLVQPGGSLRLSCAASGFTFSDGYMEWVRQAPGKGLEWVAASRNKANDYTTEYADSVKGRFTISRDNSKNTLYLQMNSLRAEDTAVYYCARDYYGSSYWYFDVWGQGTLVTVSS VL: DIVMTQSPDSLAVSLGERATINCKSSESLYSSKNKVHYLAWYQQKPGQPPKLLIYGASNRYIGVPDRFSGSGSGTDFTLTISSLQAEDVAVYYCAQFYHYPLTFGGGTKVEIK	OD450	0.07
PcOxP_DB01_D02 (scFv, V domains shown, scFv in periplasmic extract) VH: EVQLLESGGGLVQPGGSLRLSCAASGFEFSDFYMEWVRQAPGKGLEWVAASRGKGNSYTTEYADSVKGRFTISRDNSKNTLYLQMNSLRAEDTAVYYCARDYYGSSYWYFDVWGQGTLVTVSS VL: DIQMTQSPSSLSASVGDRVTITCTASESLYSSKHKVHYLAWYQQKPGKAPKLLIYGASNRYIGVPSRFSGSGSGTDFTLTISSLQPEDFATYYCGQFYSYPLTFGGGTKVEIK	OD450	0.09
